molecules and their reported GI50
tested on: CAKI-1; assay: NCI tumour cell line growth inhibition, 48 h
Activity calls are given as the source filed them. Cut-off read from the data, not from the text of the source: active = GI50 up to about 1.1 µM and inactive = higher.
MEASURED_METRIC: GI50

INSERT INTO measurements (molecule, recorded_value) VALUES
  ('CCOc1ccc(-n2c(=O)c3nn4c(=O)n(-c5ccc(OCC)cc5)c(=O)c4nn3c2=O)cc1', '> 100 µM (inactive)'),
  ('NC1=C(Cl)C(=O)c2ccccc2C1=O', '17.3 µM (inactive)'),
  ('COc1ccc(/C=C/c2cc(OC)c(OC)c(OC)c2)cc1OC', '> 83.6 µM (inactive)'),
  ('CCOC(=O)c1nc2cc(C(F)(F)F)ccc2nc1Oc1ccc(C#N)cc1', '> 100 µM (inactive)'),
  ('N=C(N)SCCON1C(=O)c2ccccc2C1=O', '> 100 µM (inactive)'),
  ('CC(=O)c1c2c(cc3c1CCC3)CCC2', '> 100 µM (inactive)'),
  ('Cc1ccc(C)c(N2C(=O)C(=O)c3c(C)ccc(C)c32)c1', '25.5 µM (inactive)'),
  ('O=C(O)CN(CC(=O)O)c1ccccc1', '> 100 µM (inactive)'),
  ('Cc1ccc(/C=N/NS(=O)(=O)c2ccccc2)cc1C', '68.7 µM (inactive)'),
  ('CC1Cc2cc(O)c(O)cc2-c2cc(O)c(O)cc2CC1C (configuration not stated)', '17.8 µM (inactive)'),
  ('O=C1C(CN2CCOCC2)CCCC1CN1CCOCC1 (configuration not stated)', '0.394 µM (active)'),
  ('O=c1c(O)c(-c2cc(O)c(O)c(O)c2)oc2cc(O)cc(O)c12', '23.6 µM (inactive)');
